Assay: Microsomal stability assay, human liver microsomes
Format: in vitro ADME
Conditions: human, microsomes, pH 7.4
quantity_name: remaining at 0.25 h, 1 µM (%)
Write the value in % as a bare number.

# input Give the reported value of remaining at 0.25 h, 1 µM for this record: O=C(c1ccc(F)cc1)C1CCN(CCn2c(=O)[nH]c3ccccc3c2=O)CC1 [ketanserin]
# output 77

====

Experiment: Microsomal stability assay, human liver microsomes
Assay type: in vitro ADME
Conditions: human, microsomes, pH 7.4
quantity_name: remaining at 0.75 h, 1 µM (%)
Write the value in % as a bare number.

# input Give the reported value of remaining at 0.75 h, 1 µM for this record: O=C(c1ccc(F)cc1)C1CCN(CCn2c(=O)[nH]c3ccccc3c2=O)CC1
# output 47.3

====

Experiment: in vitro
Details: mouse, microsomes, pH 7.4
quantity_name: remaining at 0 h, 1 µM (%)
Write the value in % as a bare number.

# input Give the reported value of remaining at 0 h, 1 µM for this record: O=C(c1ccc(F)cc1)C1CCN(CCn2c(=O)[nH]c3ccccc3c2=O)CC1
# output 100

====

Assay: Microsomal stability assay, human liver microsomes
Assay type: in vitro ADME
Settings: human, microsomes, pH 7.4
quantity_name: remaining at 0.5 h, 1 µM (%)
Write the value in % as a bare number.

# input Give the reported value of remaining at 0.5 h, 1 µM for this record: O=C(c1ccc(F)cc1)C1CCN(CCn2c(=O)[nH]c3ccccc3c2=O)CC1 [ketanserin]
# output 62.5

====

Assay: in vitro
Conditions: mouse, microsomes, pH 7.4
quantity_name: half-life at 1 µM (min)
Write the value in min as a bare number.

# input Give the reported value of half-life at 1 µM for this record: O=C(c1ccc(F)cc1)C1CCN(CCn2c(=O)[nH]c3ccccc3c2=O)CC1
# output 20.4

====

Test: in vitro
Details: mouse, microsomes, pH 7.4
quantity_name: remaining at 0.5 h, 1 µM (%)
Write the value in % as a bare number.

# input Give the reported value of remaining at 0.5 h, 1 µM for this record: O=C(c1ccc(F)cc1)C1CCN(CCn2c(=O)[nH]c3ccccc3c2=O)CC1 [ketanserin]
# output 32.9

====

Assay: Microsomal stability assay, human liver microsomes
Format: in vitro ADME
Conditions: human, microsomes, pH 7.4
quantity_name: CLint scaled at 1 µM (mL/min/kg)
Write the value in mL/min/kg as a bare number.

# input Give the reported value of CLint scaled at 1 µM for this record: O=C(c1ccc(F)cc1)C1CCN(CCn2c(=O)[nH]c3ccccc3c2=O)CC1 [ketanserin]
# output 40

====

Test: in vitro
Settings: mouse, microsomes, pH 7.4
quantity_name: CLint scaled at 1 µM (mL/min/kg)
Write the value in mL/min/kg as a bare number.

# input Give the reported value of CLint scaled at 1 µM for this record: O=C(c1ccc(F)cc1)C1CCN(CCn2c(=O)[nH]c3ccccc3c2=O)CC1 [ketanserin]
# output 267
